# test.summary: Cmax in high fat fed healthy human plasma at 400 mg, po bid after 8 days
# Assay type: ADME, organism-based
# Set-up: dose 400 mg, route oral
measured.attribute: Cmax (ng/mL)

smiles.code	assay.result
CC[C@@H]([C@H](C)O)n1ncn(-c2ccc(N3CCN(c4ccc(OC[C@@H]5CO[C@@](Cn6cncn6)(c6ccc(F)cc6F)C5)cc4)CC3)cc2)c1=O	1740

---

# test.summary: AUC (0 to 12 hrs) in high fat fed healthy human plasma measured per ml of plasma at 400 mg, po bid after 1 day
# Format: ADME, organism-based
# Design: dose 400 mg, time < 12 hr, route oral
measured.attribute: AUC at 12 h

smiles.code	assay.result
CC[C@@H]([C@H](C)O)n1ncn(-c2ccc(N3CCN(c4ccc(OC[C@@H]5CO[C@@](Cn6cncn6)(c6ccc(F)cc6F)C5)cc4)CC3)cc2)c1=O	3.63 µg·h/mL

---

# test.summary: Ratio of AUC in skin to plasma in healthy human at 400 mg, po bid after 8 days
# Type: ADME, organism-based, Skin of body
# assay.setup: skin and plasma
measured.attribute: Kp at 192 h

smiles.code	assay.result
CC[C@@H]([C@H](C)O)n1ncn(-c2ccc(N3CCN(c4ccc(OC[C@@H]5CO[C@@](Cn6cncn6)(c6ccc(F)cc6F)C5)cc4)CC3)cc2)c1=O	1.26

---

# test.summary: Tmax in high fat fed healthy human skin at 400 mg, po bid after 1 day
# Assay type: ADME, organism-based, Zone of skin

compound	unit.of.measurement	Tmax
CC[C@@H]([C@H](C)O)n1ncn(-c2ccc(N3CCN(c4ccc(OC[C@@H]5CO[C@@](Cn6cncn6)(c6ccc(F)cc6F)C5)cc4)CC3)cc2)c1=O [POSACONAZOLE]	h	12

---

# test.summary: Cmax in high fat fed healthy human skin at 400 mg, po bid after 8 days
# Type: ADME, organism-based, Zone of skin
# Design: dose 400 mg, route oral

smiles.code	unit.of.measurement	Cmax
CC[C@@H]([C@H](C)O)n1ncn(-c2ccc(N3CCN(c4ccc(OC[C@@H]5CO[C@@](Cn6cncn6)(c6ccc(F)cc6F)C5)cc4)CC3)cc2)c1=O	ng/g	2610

---

# test.summary: AUC (0 to 12 hrs) in high fat fed healthy human plasma measured per ml of plasma at 400 mg, po bid after 8 days
# Assay type: ADME, organism-based
# Design: dose 400 mg, time < 12 hr, route oral

compound	unit.of.measurement	AUC at 12 h
CC[C@@H]([C@H](C)O)n1ncn(-c2ccc(N3CCN(c4ccc(OC[C@@H]5CO[C@@](Cn6cncn6)(c6ccc(F)cc6F)C5)cc4)CC3)cc2)c1=O [POSACONAZOLE]	ng·h/mL	18600

---

# test.summary: Tmax in high fat fed healthy human plasma at 400 mg, po bid after 1 day
# Assay type: ADME, organism-based

molecule	unit.of.measurement	Tmax
CC[C@@H]([C@H](C)O)n1ncn(-c2ccc(N3CCN(c4ccc(OC[C@@H]5CO[C@@](Cn6cncn6)(c6ccc(F)cc6F)C5)cc4)CC3)cc2)c1=O [POSACONAZOLE]	h	8

---

# test.summary: Cmax in high fat fed healthy human plasma at 400 mg, po bid after 1 day
# Type: ADME, organism-based
# Parameters: dose 400 mg, route oral

molecule	unit.of.measurement	Cmax
CC[C@@H]([C@H](C)O)n1ncn(-c2ccc(N3CCN(c4ccc(OC[C@@H]5CO[C@@](Cn6cncn6)(c6ccc(F)cc6F)C5)cc4)CC3)cc2)c1=O [POSACONAZOLE]	ng/mL	453

---

# test.summary: Tmax in high fat fed healthy human skin at 400 mg, po bid after 8 days
# Format: ADME, organism-based, Zone of skin

compound	unit.of.measurement	Tmax
CC[C@@H]([C@H](C)O)n1ncn(-c2ccc(N3CCN(c4ccc(OC[C@@H]5CO[C@@](Cn6cncn6)(c6ccc(F)cc6F)C5)cc4)CC3)cc2)c1=O [POSACONAZOLE]	h	3

Values were extracted from ChEMBL document CHEMBL1255452.
